Reference source: patent US20240116985A1

target: full-length beta-Catenin (Uniprot ID P35222) (Homo sapiens (Human)) (UniProt P35222); experiment: fluorescence polarization competition; full-length beta-catenin, 5FAM-TCF4(10-53) probe displaced
Sequence (P35222 whole entry): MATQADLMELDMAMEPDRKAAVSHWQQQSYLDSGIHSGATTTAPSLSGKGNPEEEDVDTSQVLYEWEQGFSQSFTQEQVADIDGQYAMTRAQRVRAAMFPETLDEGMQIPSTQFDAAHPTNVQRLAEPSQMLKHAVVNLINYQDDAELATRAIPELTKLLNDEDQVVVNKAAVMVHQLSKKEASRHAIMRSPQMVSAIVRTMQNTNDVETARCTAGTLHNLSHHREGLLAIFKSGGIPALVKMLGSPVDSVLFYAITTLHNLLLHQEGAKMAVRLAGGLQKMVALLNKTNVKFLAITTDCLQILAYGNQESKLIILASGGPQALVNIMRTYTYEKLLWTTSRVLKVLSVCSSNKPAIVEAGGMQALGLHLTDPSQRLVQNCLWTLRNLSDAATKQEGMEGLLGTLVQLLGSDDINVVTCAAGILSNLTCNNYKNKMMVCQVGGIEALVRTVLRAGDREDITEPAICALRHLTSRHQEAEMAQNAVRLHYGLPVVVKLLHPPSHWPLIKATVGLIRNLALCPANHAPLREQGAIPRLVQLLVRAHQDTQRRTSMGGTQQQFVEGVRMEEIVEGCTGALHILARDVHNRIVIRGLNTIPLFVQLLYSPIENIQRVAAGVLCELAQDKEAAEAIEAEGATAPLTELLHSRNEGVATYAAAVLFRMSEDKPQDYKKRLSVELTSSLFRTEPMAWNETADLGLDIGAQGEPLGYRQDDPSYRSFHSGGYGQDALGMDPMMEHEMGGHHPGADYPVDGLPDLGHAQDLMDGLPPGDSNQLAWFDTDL
Starred links: 1 amine or outer side, 2 acyl side, 3 side chain; linkers in the order of their positions; H or OH if unused. Positions of bridges follow the written chain, without caps; N, C: chain ends. Non-standard residues stand in square brackets, D forms with d. Primed or numbered codes have the meaning given here. PyrS2″ = (S)-3-amino-1-((pent-4-en-1-yloxy)carbonyl)pyrrolidine-3-carboxylic acid (stapling residue), C=CCCCOC(=O)N1CC[C@@](N[*:1])(C(=O)[*:2])C1; B5(5) = 2,2-bis(4-pentenyl)glycine, 2-amino-2-(pent-4-en-1-yl)hept-6-enoic acid (stitching residue), C=CCCCC(CCCC=C)(N[*:1])C(=O)[*:2]; B5(3) = 2,2-bis(4-pentenyl)glycine (stitching residue), C=CCCCC(CCCC=C)(N[*:1])C(=O)[*:2]; Bta = N[C@@H](Cc1csc2ccccc12)C(=O)O; αAllylPro = C=CC[C@@]1(C(=O)O)CCCN1; tBuAla = CC(C)(C)C[C@H](N)C(=O)O; 3Thi = N[C@@H](Cc1ccsc1)C(=O)O
property label: IC50

| binder | property label | observed |
| --- | --- | --- |
| Ac-[αAllylPro]D[tBuAla][B5(5)]SDAAFN[PyrS2″][3Thi][Bta]Q-NH2 (staple 1-4, 4-11) [Ac-PL3-Asp-Npg-B5-Ser-Asp-Ala-Ala-Phe-Asn-PyrS2-3Thi-BztA-Gln-NH2] | IC50 | 349 nM |
| Ac-[αAllylPro]D[tBuAla][B5(3)]NDAAFL[PyrS2″][3Thi][Bta]Q-NH2 (staple 1-4, 4-11) [Ac-PL3-Asp-Npg-B5-Asn-Asp-Ala-Ala-Phe-Leu-PyrS2-3Thi-BztA-Gln-NH2] | IC50 | 40 nM |
| Ac-[αAllylPro]D[tBuAla][B5(5)]LDAAFN[PyrS2″][3Thi][Bta]Q-NH2 (staple 1-4, 4-11) [Ac-PL3-Asp-Npg-B5-Leu-Asp-Ala-Ala-Phe-Asn-PyrS2-3Thi-BztA-Gln-NH2] | IC50 | 8660 nM |
| Ac-[αAllylPro]S[tBuAla][B5(5)]DDAAFN[PyrS2″][3Thi][Bta]Q-NH2 (staple 1-4, 4-11) [Ac-PL3-Ser-Npg-B5-Asp-Asp-Ala-Ala-Phe-Asn-PyrS2-3Thi-BztA-Gln-NH2] | IC50 | 511 nM |
